From: patent US9676789B2

tested on: K562/adr (drug-resistant, chronic myeloid leukemia, CML); experiment: MTT leukemia cell growth inhibition, 72 h; type: cell-based, human; conditions: Homo sapiens, K562/Adr, read-out: IC50
Reported endpoint: IC50

Examples from the recorded data:
- COCCCNC(=O)C[C@](O)(CCCC(C)(C)O)C(=O)O[C@@H]1C(OC)=C[C@]23CCCN2CCc2cc4c(cc2[C@H]13)OCO4: > 16 µg/mL
- COC1=C[C@]23CCCN2CCc2cc4c(cc2[C@@H]3[C@@H]1OC(=O)[C@@](O)(CCCC(C)(C)O)CC(=O)N1CCN(C(C)C)CC1)OCO4: 4.53 µg/mL
- COC1=C[C@]23CCCN2CCc2cc4c(cc2[C@@H]3[C@@H]1OC(=O)[C@@](O)(CCCC(C)(C)O)CC(=O)N1CCCC(C)C1)OCO4 (stereo partly drawn): > 16 µg/mL
- COC1=C[C@]23CCCN2CCc2cc4c(cc2[C@@H]3[C@@H]1OC(=O)[C@@](O)(CCCC(C)(C)O)CC(=O)Nc1nccs1)OCO4: > 16 µg/mL
- COC1=C[C@]23CCCN2CCc2cc4c(cc2[C@@H]3[C@@H]1OC(=O)[C@@](O)(CCCC(C)(C)O)CC(=O)N1CCOCC1)OCO4: > 16 µg/mL
- COC1=C[C@]23CCCN2CCc2cc4c(cc2[C@@H]3[C@@H]1OC(=O)[C@@](O)(CCCC(C)(C)O)CC(=O)NCc1ccc(C)o1)OCO4: 0.66 µg/mL

Which IC50 reading was recorded for the compound COC1=C[C@]23CCCN2CCc2cc4c(cc2[C@@H]3[C@@H]1OC(=O)[C@@](O)(CCCC(C)(C)O)CC(=O)N1CCCC(O)C1)OCO4 (stereo partly drawn) ?
> 16 µg/mL

Input COC1=C[C@]23CCCN2CCc2cc4c(cc2[C@@H]3[C@@H]1OC(=O)[C@@](O)(CCCC(C)(C)O)CC(=O)N1CCC(O)CC1)OCO4
> 16 µg/mL

Input COC1=C[C@]23CCCN2CCc2cc4c(cc2[C@@H]3[C@@H]1OC(=O)[C@@](O)(CCCC(C)(C)O)CC(=O)NCc1cccs1)OCO4
6.24 µg/mL

Input COC1=C[C@]23CCCN2CCc2cc4c(cc2[C@@H]3[C@@H]1OC(=O)[C@@](O)(CCCC(C)(C)O)CC(=O)N1CCN(C)CC1)OCO4
> 16 µg/mL

Input COC1=C[C@]23CCCN2CCc2cc4c(cc2[C@@H]3[C@@H]1OC(=O)[C@@](O)(CCCC(C)(C)O)CC(=O)N1CCCCC1)OCO4
> 16 µg/mL

Input COC1=C[C@]23CCCN2CCc2cc4c(cc2[C@@H]3[C@@H]1OC(=O)[C@@](O)(CCCC(C)(C)O)CC(=O)N1CCN(CCO)CC1)OCO4
> 16 µg/mL
